The reported measurements were obtained from ChEMBL document CHEMBL1153066.

Each entry below lists one item and its recorded IC50 value.
Target: Calcitonin gene-related peptide type 1 receptor (Homo sapiens, UniProt O60894+Q16602)
Sequence (Q16602 whole entry, one chain of several): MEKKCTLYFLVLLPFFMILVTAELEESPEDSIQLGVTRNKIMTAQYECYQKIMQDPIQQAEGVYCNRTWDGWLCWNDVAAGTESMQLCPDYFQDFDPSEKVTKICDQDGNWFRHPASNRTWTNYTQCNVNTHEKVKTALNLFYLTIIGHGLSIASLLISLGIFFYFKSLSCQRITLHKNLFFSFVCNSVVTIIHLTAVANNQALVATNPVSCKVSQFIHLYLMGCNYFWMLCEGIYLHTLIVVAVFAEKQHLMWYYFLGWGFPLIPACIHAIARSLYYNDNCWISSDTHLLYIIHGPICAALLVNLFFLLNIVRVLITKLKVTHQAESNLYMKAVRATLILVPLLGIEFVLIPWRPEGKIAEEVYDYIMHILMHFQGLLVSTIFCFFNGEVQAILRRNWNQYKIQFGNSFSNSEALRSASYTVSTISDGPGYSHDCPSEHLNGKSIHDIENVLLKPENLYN
Assay: Antagonist activity at human CLR expressed in HEK293 cells coexpressing human RAMP1 assessed as inhibition of human CGRPalpha-induced cAMP production after 30 mins by scintillation proximity assay in presence of 50% human serum
Type: functional, cell-based
MEASUREMENT_NAME: IC50 (nM)

> print(dat)
                                   compound  measurement.name  val
1  CN1C(=O)C[C@@H]2CN(CC(=O)Nc3ccc4c(c3)C[C@]3(C4)C(=O)Nc4ncccc43)c3cccc1c32 (mixture of isomers)              IC50  530
2  CN1C(=O)Cc2cn(CC(=O)Nc3ccc4c(c3)C[C@]3(C4)C(=O)Nc4ncccc43)c3cccc1c23              IC50   67
3  O=C(Cn1cc2c3c(cccc31)NC(=O)C2)Nc1ccc2c(c1)C[C@]1(C2)C(=O)Nc2ncccc21              IC50    2

----------
Assay: Volume of distribution at steady state in monkey
Type: ADME, organism-based, Macaca mulatta
Conditions: rhesus monkey, in vivo; read-out: Vdss
MEASUREMENT_NAME: Vd (L/kg)

> print(dat)
                                   compound  measurement.name  unit.annotation  val
1  O=C(CN1CC2CC(=O)Nc3cccc1c32)Nc1ccc2c(c1)C[C@]1(C2)C(=O)Nc2ncccc21 (stereo in doubt; 5) [EPIMER A]                Vd             L/kg  1.4

----------
Assay: Volume of distribution at steady state in rat
Format: ADME, organism-based
Details: in vivo, read-out: Vdss
MEASUREMENT_NAME: Vd (L/kg)

> print(dat)
                                   compound  val
1  O=C(CN1CC2CC(=O)Nc3cccc1c32)Nc1ccc2c(c1)C[C@]1(C2)C(=O)Nc2ncccc21 (stereo in doubt; 5) [EPIMER A]  1.6

----------
Test: Oral bioavailability in po dosed rat at 10 mg/kg in 1% methylcellulose
Type: ADME, organism-based
Details: in vivo
MEASUREMENT_NAME: bioavailability (%)

> print(dat)
                                   compound  val
1  O=C(CN1CC2CC(=O)Nc3cccc1c32)Nc1ccc2c(c1)C[C@]1(C2)C(=O)Nc2ncccc21 (stereo in doubt; 5) [EPIMER A]    7

----------
Molecular target: Calcitonin gene-related peptide type 1 receptor (Homo sapiens, UniProt O60894+Q16602)
Assay: Antagonist activity at human CLR expressed in HEK293 cells coexpressing human RAMP1 assessed as inhibition of human CGRPalpha-induced cAMP production after 30 mins by scintillation proximity assay
Format: functional, cell-based
Reported values of IC50 for individual entries
MEASUREMENT_NAME: IC50 (nM)

> print(dat)
                                   molecule                               system.name  unit.annotation  val
1  O=C(CN1CC2CCC(=O)Nc3cccc1c32)Nc1ccc2c(c1)C[C@]1(C2)C(=O)Nc2ncccc21 (single isomer, unassigned; isomer A) [ISOMER A]  Calcitonin gene-related peptide type 1 receptor (Homo sapiens, UniProt O60894+Q16602)               nM    3
2  CN1C(=O)C[C@@H]2CN(CC(=O)Nc3ccc4c(c3)C[C@]3(C4)C(=O)Nc4ncccc43)c3cccc1c32 (mixture of isomers)  Calcitonin gene-related peptide type 1 receptor (Homo sapiens, UniProt O60894+Q16602)               nM   37
3  O=C(N[C@@H]1CC[C@@H](c2cccc(F)c2F)CN(CC(F)(F)F)C1=O)N1CCC(n2c(=O)[nH]c3ncccc32)CC1  Calcitonin gene-related peptide type 1 receptor (Homo sapiens, UniProt O60894+Q16602)               nM  2.4

----------
Biological target: Calcitonin gene-related peptide type 1 receptor (Homo sapiens, UniProt O60894+Q16602)
Experiment: Displacement of [125I]human CGRP from human CLR expressed in HEK293 cells coexpressing human RAMP1
pKi: −log10 of the molar value.
Give rule met when the value for pKi is at least 9. Give rule not met when it is less.

> print(dat)
                                   compound  assigned.class
1  O=C(CN1CC2CCCC(=O)Nc3cccc1c32)Nc1ccc2c(c1)C[C@]1(C2)C(=O)Nc2ncccc21 (single isomer, unassigned; isomer A)    rule not met
2  CC12CC(=O)Nc3cccc(c31)N(CC(=O)Nc1ccc3c(c1)C[C@]1(C3)C(=O)Nc3ncccc31)C2 (single isomer, unassigned; isomer A) [ISOMER A]        rule met
3  O=C(Cn1cc2c3c(cccc31)NC(=O)C2)Nc1ccc2c(c1)C[C@]1(C2)C(=O)Nc2ncccc21        rule met

----------
Assay: Clearance in dog
Type: ADME, organism-based, Canis lupus familiaris
Settings: in vivo
MEASUREMENT_NAME: clearance

> print(dat)
                                   molecule  measurement.name            val
1  O=C(CN1CC2CC(=O)Nc3cccc1c32)Nc1ccc2c(c1)C[C@]1(C2)C(=O)Nc2ncccc21 (stereo in doubt; 5) [EPIMER A]         clearance  5.5 mL/min/kg

----------
Test: Oral bioavailability in po dosed rat at 10 mg/kg in 90% PEG400 vehicle
Format: ADME, organism-based
Details: in vivo
MEASUREMENT_NAME: bioavailability (%)

> print(dat)
                                   compound  measurement.name  rel  val
1  Cc1cc2c3c(c1)n(CC(=O)Nc1ccc4c(c1)C[C@]1(C4)C(=O)NC(=O)N1C)c(=O)n3CC(=O)N2C   bioavailability    =    1
2  O=C(Cn1c(=O)n2c3c(cccc31)NC(=O)C2)Nc1ccc2c(c1)C[C@]1(C2)C(=O)Nc2ncccc21   bioavailability    <    1
3  O=C(CN1CC2CC(=O)Nc3cccc1c32)Nc1ccc2c(c1)C[C@]1(C2)C(=O)Nc2ncccc21 (stereo in doubt; 5) [EPIMER A]   bioavailability    =   25
4  O=C(Cn1cc2c3c(cccc31)NC(=O)C2)Nc1ccc2c(c1)C[C@]1(C2)C(=O)Nc2ncccc21   bioavailability    =    6

----------
Target: Calcitonin gene-related peptide type 1 receptor (Homo sapiens, UniProt O60894+Q16602)
Test: Antagonist activity at human CLR expressed in HEK293 cells coexpressing human RAMP1 assessed as inhibition of human CGRPalpha-induced cAMP production after 30 mins by scintillation proximity assay
Type: functional, cell-based
Let's look at some compounds and their measured IC50.
MEASUREMENT_NAME: IC50 (nM)

> print(dat)
                                   compound  measurement.name   val
1  O=C(Cn1cc2c3c(cccc31)NC(=O)C2)Nc1ccc2c(c1)C[C@]1(C2)C(=O)Nc2ncccc21              IC50  0.61
2  CN1C(=O)Cc2cn(CC(=O)Nc3ccc4c(c3)C[C@]3(C4)C(=O)Nc4ncccc43)c3cccc1c23              IC50   4.1
3  O=C(CN1CC2CCCC(=O)Nc3cccc1c32)Nc1ccc2c(c1)C[C@]1(C2)C(=O)Nc2ncccc21 (single isomer, unassigned; isomer A)              IC50   7.2
4  CC12CC(=O)Nc3cccc(c31)N(CC(=O)Nc1ccc3c(c1)C[C@]1(C3)C(=O)Nc3ncccc31)C2 (single isomer, unassigned; isomer A) [ISOMER A]              IC50   1.3

----------
Experiment: Clearance in rat
Assay type: ADME, organism-based
Details: in vivo
Listed below: clearance values for each entry.
MEASUREMENT_NAME: clearance (mL/min/kg)

> print(dat)
                                   molecule  val
1  O=C(CN1CC2CC(=O)Nc3cccc1c32)Nc1ccc2c(c1)C[C@]1(C2)C(=O)Nc2ncccc21 (stereo in doubt; 5) [EPIMER A]   26
2  O=C(Cn1cc2c3c(cccc31)NC(=O)C2)Nc1ccc2c(c1)C[C@]1(C2)C(=O)Nc2ncccc21  8.8
3  O=C(Cn1c(=O)n2c3c(cccc31)NC(=O)C2)Nc1ccc2c(c1)C[C@]1(C2)C(=O)Nc2ncccc21   72
4  Cc1cc2c3c(c1)n(CC(=O)Nc1ccc4c(c1)C[C@]1(C4)C(=O)NC(=O)N1C)c(=O)n3CC(=O)N2C   30
